system: HCT-116 colon; assay: NCI tumour cell line growth inhibition, 48 h
# GI50 per entry

{"molecule": "C=CC(=O)N1CCN(c2ncnc3c(F)c(-c4c(O)cccc4F)c(Cl)cc23)CC1", "study_system": "HCT-116 colon", "value": "9190 nM"}
{"molecule": "CN(C)CCNC(=O)Nc1c(C#N)[n+]([O-])c2cc(Cl)c(Cl)cc2[n+]1[O-]", "study_system": "HCT-116 colon", "value": "13400 nM"}
{"molecule": "C[C@H]1CCC/C=C/[C@@H]2C[C@H](N)C[C@H]2[C@H](O)/C=C/C(=O)O1", "study_system": "HCT-116 colon", "value": "> 100000 nM"}

Here is another molecule to look at.
# return recorded GI50 for entry `CNC(=O)c1ccc(-c2cnc3ncc(Cc4ccc5ncccc5c4)n3n2)cc1F`
> 100000 nM

====

system: HCT-15 colon; assay: NCI tumour cell line growth inhibition, 48 h
# TGI per entry

{"compound": "COC(=O)NC/C=C\\c1nc(CC/C=C\\C(=O)OC2CC3CC(=O)O[C@@H](/C=C/CC(C)C)C[C@@H]4CCC(C)C(C[C@@H](OC)CC(C2)O3)O4)co1 (stereo partly drawn)", "TGI": "20.7 µM"}
{"compound": "COc1cc2c3c(n(C)c(=O)c2cc1OC)-c1cc2c(cc1/C3=C/CCCCBr)OCO2", "TGI": "> 100 µM"}
{"compound": "COc1ccc2c(-c3cc4ccccc4o3)cc(=O)oc2c1", "TGI": "> 100 µM"}
{"compound": "CCC1C(=O)OCc2c1cc1n(c2=O)CCC12OCCO2 (stereo not drawn)", "TGI": "> 100 µM"}
{"compound": "O=C(NCCCNCCCCNCCCNC(=O)C(F)(F)F)C(F)(F)F", "TGI": "> 100 µM"}
{"compound": "COc1cc(-c2c3c(cc4c2OCO4)[C@@H](Nc2ccc4c(c2)Cc2cc(N[C@@H]5c6cc7c(cc6C(c6cc(OC)c(O)c(OC)c6)[C@H]6C(=O)OC[C@H]56)OCO7)ccc2-4)[C@H]2COC(=O)[C@@H]2C3)cc(OC)c1O (stereo partly drawn)", "TGI": "> 100 µM"}
{"compound": "O=c1cc(-c2ccccc2F)[nH]c2cc3c(cc12)OCO3", "TGI": "4.22 µM"}

Here is another compound to look at.
# return recorded TGI for entry `Clc1cc(Cl)c2c(Cl)cc(Cl)c3c2c1N=S=N3`
> 100 µM

====

system: A549 NSCLC; experiment: NCI tumour cell line growth inhibition, 48 h
assay_endpoint: TGI (µM)
Lab book: enter the figure in µM, no units written.

Some solved entries appear below for comparison.
{"compound": "COC(=O)[C@H]1C=C[C@H](OC2OC(COC(C)=O)C(OC(C)=O)C(OC(C)=O)C2OC(C)=O)n2c(=O)n(-c3ccccc3)c(=O)n21 (stereo not given in full)", "value": 35.4}
{"compound": "c1cc[c]([Sn]([S]c2cccc3cccnc23)([c]2ccccc2)[c]2ccccc2)cc1", "value": 0.224}
{"compound": "CCN(Cc1c(F)cccc1F)c1ccc(CO)c(Cl)c1", "value": 10.7}
{"compound": "c1ccc2c(c1)N=C(c1cccc3ccccc13)CC(c1cccc3ccccc13)S2 (stereo not given)", "value": 41.9}

# return recorded TGI for entry `NCCN1CCN(c2nccc(-c3ccc4ccccc4c3)n2)CC1`
3.43

Provenance of the data: PubChem BioAssay (NCI)
